- test.name: yeast display, Sf9 membrane polyspecificity reagent, FACS + sequencing; frameworks hold sequencing errors

{"sequence": "QVQLVESGGGLVQAGGSLRLSCAASGSTFEYYAMGWYRQAPGKERELVAAITRRGGSTYYADSVKGRFTISRDNAKNTVYLQMNSLKPEDTAVYYCAAVPTQKSPRTHDFWGQGTQVTVSS", "polyreactivity (PSR sort gate)": "low polyreactivity"}
{"sequence": "QVQLVESGGGLVQAGGSLRLSCAASGSIFSSYAMGWYRQAPGKERELVAAISQSGGDTYYADSVKGRFTISRDNAKNTVYLQMNSLKPEDTAVYYCAASFWYYPMDYWGQGTQVTVSS", "polyreactivity (PSR sort gate)": "low polyreactivity"}
{"sequence": "QVQLVESGRGIVQAGGSLRLSCAASGSTFAVNAMGWYRQAPGKERELVAAISTGGSTNYADSVKGRFTISRDNEKNTVFLQMNSLKPEDTAVYYCAAEHPVTYPTSKFDYWGQGTQVTVSS", "polyreactivity (PSR sort gate)": "low polyreactivity"}

---

- test.name: yeast display, Sf9 membrane polyspecificity reagent, FACS + sequencing; frameworks hold sequencing errors
measurement.name: polyreactivity (PSR sort gate)

{"sequence": "QVQLVESGGGLVQAGGSLRLSCAASGRMFGAYGMGWYRQAPGKERELVAAISNGGRTSYADSVKGRFTISRDNAKNTVYLQMNSLKPEDTAVYYCAAVQLAYTYYWYNDWGQGTQVTVSS", "result": "high polyreactivity"}
{"sequence": "QVQLVESGGGLVQAGGSLRLSCAASGSIFPLNAMGWYRQAPGKERELVASISTGSSTYYADSVKGRFTISRDNAKNTVYLQMNSLKPEDTAVYYCAVDRVLFSDYYRGYEYNYWGQGTQVTVSS", "result": "low polyreactivity"}
{"sequence": "QDQLVESGGGLVQAGGSLRLSCAASGFTFGRYAMGWYRQAPGKERELVATITRTGSTNYADSVKGRFTISRDNAKNTVDLQMHSLKPEDTAVYYCNAVYSGWRYVKYDYWGPGTQVTVSS", "result": "low polyreactivity"}
{"sequence": "QVQLVESGGGLVQAGGSLRLSCAASGNILGYNAMGWYRQAPGKERELVAAISWIGGSTYYADSVKGRFTISRDNAKNTVYLQMNSLKPEDTAVYYCAARRVIYYPAFYYDYYYWGQGTQVTVSS", "result": "low polyreactivity"}
{"sequence": "QVQLVESGGGLVQAGGSLRLSCAASGFIFASYAMGWYRQAPGKERELVAAITQSGGITYYADSVKGRFTISRDNAKNTVYLQMTSLKPEDTAVYYCNTPLLKRTTRGRERNYWGQGTQVTVSS", "result": "low polyreactivity"}

Kindly note the recorded polyreactivity (PSR sort gate) for "QFQLVESGGGLVQAGGSLRLSCAASGSTFRGYVMGWYRQAPGKERELVAAITFSSGSTYYADSVKGRFTISRDNAKNTVYLQMNSLKPEDTAVYYCAAVGPYYRDYYYWGQGTQVTVSS" , which is high polyreactivity

Kindly note the recorded polyreactivity (PSR sort gate) for "QVQLVESGGGLVQAGGSLSLSCAASGLTFKWNAMGWYRQAPGKEREFVAANTKRAGSTYYADSVKGRFTISRDNAKNTVYIQMNSLKPEDTAVYYCAADDGYFYARYDYWGQGTQVTVSS" , which is low polyreactivity

Kindly note the recorded polyreactivity (PSR sort gate) for "QVQLVESGGGLVQAGGSLRLSCAASGRIFANYAMGWYRQAPGKERELVAGITTGGSTYYADSVKGRFTISRDNAKNTVYLQMNSLKPVDTAVYYCAVRWRNRLYYYWGQGTQVTVSS" , which is high polyreactivity

Kindly note the recorded polyreactivity (PSR sort gate) for "QVQLVESGGGLVQAGGSLRLSCAASGSIFYQYAMGWNRQAPGKERELVAVINRSGSSTYYADSVKGRFTISRDNAKNTVYLQMNSLKPEDNAVYYCAAASKYSEYNYWGQGTEVTVSS" , which is high polyreactivity

Kindly note the recorded polyreactivity (PSR sort gate) for "QVQLVESGGGLVQAGGSLRLSCAASGRNLYYNAMGWYRHAPGKERELVAAITFRGGSTSYADSVKGRFTISRDNAKNTVYLQMNSLKPEDTAVYYCAAGYTWRQSWYPFDYWGQGTQVTVSS" , which is high polyreactivity

Kindly note the recorded polyreactivity (PSR sort gate) for "QVQLVESGARLVQAGGSLRLSCAASGSILGGNAMGWYRQPPGKERELVAAITFSGGGTYYADSVKGRFTISRDNAKNTVYLQMNSLKPEDTAVYYCAADIAGYTYEFDYWGQGTQLTVSS" , which is low polyreactivity

Hey, just so you know, these numbers are from the nanobody polyreactivity screen of Harvey et al. (2022).
